Data origin: patent EP4559911A1

target: human Autotaxin protein (Homo sapiens); assay: Evaluation of the inhibitory activity against human Autotaxin protein (18:1 LysoPC substrate, choline assay kit, absorbance at 570 nm); format: biochemical; details: compound at 500nM; 2 hours at 37 °C; % inhibition = (1 - absorbance test group / absorbance control group) X 100
result_type: inhibition at 0.5 µM (%)

Guide cases for inhibition at 0.5 µM, answers given:
>>> data_value("Fc1cc2c(cc1F)CC(Nc1cnc(-c3nnc(N4CC(c5c[nH]nn5)C4)o3)cn1)C2")
1
>>> data_value("Fc1cc(F)cc(CNc2ncc(-c3nnc(N4CCC(c5c[nH]nn5)C4)o3)cn2)c1 (centres unmarked)")
72.5
>>> data_value("Clc1ccc(CCNc2ncc(-c3nnc(N4CC(c5c[nH]nn5)C4)o3)cn2)cc1")
89.3
>>> data_value("Fc1cc2c(cc1F)CC(Nc1ncc(-c3nnc(N4CCC(c5c[nH]nn5)C4)o3)cn1)C2 (centres unmarked)")
100
>>> data_value("CN(c1ncc(-c2nnc(N3CC(c4c[nH]nn4)C3)o2)cn1)C1Cc2cc(F)c(F)cc2C1")
10.5
>>> data_value("O=c1[nH]nc(C2CCN(c3nnc(-c4cnc(NC5Cc6cc(F)c(F)cc6C5)nc4)o3)C2)o1 (centres unmarked)")
91.6

1. c1cnc2c(c1)CC(Nc1ncc(-c3nnc(N4CCC(c5c[nH]nn5)C4)o3)cn1)C2 (centres unmarked)
2. CC1(c2c[nH]nn2)CN(c2nnc(-c3cnc(NC4Cc5ccccc5C4)nc3)o2)C1
Field: entry with larger inhibition at 0.5 µM (options 1 / 2 ). Use the label to indicate which entry you chose.
2

----------
target: human Autotaxin protein (Homo sapiens, UniProt Q13822); assay: Evaluation of the inhibitory activity against human Autotaxin protein (18:1 LysoPC substrate, choline assay kit, absorbance at 570 nm); assay type: biochemical; settings: compound at 500nM; 2 hours at 37 °C; % inhibition = (1 - absorbance test group / absorbance control group) X 100
result_type: inhibition at 0.5 µM (%)

>>> data_value("CC(C)(C)C(=O)OCn1cc(C2CN(c3nnc(-c4cnc(NC5Cc6cccnc6C5)nc4)o3)C2)nn1 (centres unmarked) [Example 73]")
1.2
>>> data_value("NS(=O)(=O)C1CN(c2nnc(-c3cnc(NC4Cc5cc(F)c(F)cc5C4)nc3)o2)C1 [Example 46]")
27.1
>>> data_value("Fc1cc2c(cc1F)CC(Nc1ccc(-c3nnc(N4CC(c5c[nH]nn5)C4)o3)cn1)C2 [Example 54]")
23.4

I. Fc1cc2c(cc1F)CC(Nc1ncc(-c3cc(N4CC(c5c[nH]nn5)C4)no3)cn1)C2 [Example 45]
II. CC(C)(C)C(=O)OCn1cc(C2CN(c3nnc(-c4cnc(NCc5ccc6c(c5)OCO6)nc4)o3)C2)nn1 [Example 86]
Could you kindly indicate whether I or II has the higher inhibition at 0.5 µM value? Identify your selection by its label.
I
(I: 43%, II: 2.8%)

1. OC1CN(c2nnc(-c3cnc(NC4Cc5cc(F)c(F)cc5C4)nc3)o2)C1 [Example 49]
2. CC(C)(C)C(=O)OCn1cc(C2CN(c3nnc(-c4cnc(NC5Cc6nccnc6C5)nc4)o3)C2)nn1 [Example 72]
3. c1cc2c(cc1CNc1ncc(-c3nnc(N4CCC(c5c[nH]nn5)C4)o3)cn1)OCO2 (centres unmarked) [Example 6]
Sort these compounds on inhibition at 0.5 µM so the largest reading comes first. Output the labels ranked as instructed.
3, 1, 2
(3: 30.4%, 1: 11%, 2: 3.1%)
